Origin of values: patent US20240316038A1

Target: APOL1 G2 (Homo sapiens, UniProt O14791, DEL388-389)
Sequence (O14791 with tags, fused parts or gaps DEL388-389): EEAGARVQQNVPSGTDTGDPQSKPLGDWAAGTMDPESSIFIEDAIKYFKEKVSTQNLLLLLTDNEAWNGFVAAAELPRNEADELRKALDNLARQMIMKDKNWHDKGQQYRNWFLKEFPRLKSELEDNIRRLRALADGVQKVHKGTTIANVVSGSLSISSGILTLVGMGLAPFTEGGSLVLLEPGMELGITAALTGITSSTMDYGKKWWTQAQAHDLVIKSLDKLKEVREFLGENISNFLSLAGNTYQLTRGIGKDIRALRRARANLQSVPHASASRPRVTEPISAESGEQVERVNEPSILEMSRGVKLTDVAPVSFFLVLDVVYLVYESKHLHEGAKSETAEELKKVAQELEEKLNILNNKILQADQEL
Experiment: Rescue of HEK293 cell death caused by overexpression of APOL1 (CellTiter-Glo luminescence), HEK293/T-REx APOL1 G2/clone #2
Settings: reversal of cell death caused by overexpression of APOL1; geometric mean of at least 2 assay runs, † = single assay run (technical duplicate)
Listed here: items and their measured EC50.
Dear colleague, please return just the value in nM, with no unit written.

The cases that follow already have their EC50 on record.
Would you kindly share the measured EC50 for C[C@@H]1CN(CC(O)c2cc(Cl)cc(C#N)c2)C[C@H]1COc1ccc(S(C)(=O)=O)cc1 (stereo partly shown) [Compound 120] ?
195

Would you kindly share the measured EC50 for COC(CN1CCC[C@H](COc2ccc(S(C)(=O)=O)cc2)C1)c1cccc(Cl)c1 (single isomer, unassigned) [Compound 24] ?
334

Would you kindly share the measured EC50 for C[C@@H]1C[C@H](COc2ccc(S(C)(=O)=O)cc2)CN1CC(O)c1cc(Cl)cc(C#N)c1 (single isomer, unassigned) [Compound 115] ?
44.7

Further cases:
Would you kindly share the measured EC50 for CN(c1ccc(OC[C@H]2CCN(CCc3cccc(Cl)c3)C2)cc1)S(C)(=O)=O [Compound 49] ?
957

Would you kindly share the measured EC50 for CS(=O)(=O)c1ccc(OC[C@@H](O)CN2CCCCC2Cc2cccc(Cl)c2)cc1 (single isomer, unassigned) [Compound 63] ?
3960
